- system: Ubiquitin carboxyl-terminal hydrolase 2 (Homo sapiens) (UniProt O75604)
- Sequence (O75604 whole entry, looked up): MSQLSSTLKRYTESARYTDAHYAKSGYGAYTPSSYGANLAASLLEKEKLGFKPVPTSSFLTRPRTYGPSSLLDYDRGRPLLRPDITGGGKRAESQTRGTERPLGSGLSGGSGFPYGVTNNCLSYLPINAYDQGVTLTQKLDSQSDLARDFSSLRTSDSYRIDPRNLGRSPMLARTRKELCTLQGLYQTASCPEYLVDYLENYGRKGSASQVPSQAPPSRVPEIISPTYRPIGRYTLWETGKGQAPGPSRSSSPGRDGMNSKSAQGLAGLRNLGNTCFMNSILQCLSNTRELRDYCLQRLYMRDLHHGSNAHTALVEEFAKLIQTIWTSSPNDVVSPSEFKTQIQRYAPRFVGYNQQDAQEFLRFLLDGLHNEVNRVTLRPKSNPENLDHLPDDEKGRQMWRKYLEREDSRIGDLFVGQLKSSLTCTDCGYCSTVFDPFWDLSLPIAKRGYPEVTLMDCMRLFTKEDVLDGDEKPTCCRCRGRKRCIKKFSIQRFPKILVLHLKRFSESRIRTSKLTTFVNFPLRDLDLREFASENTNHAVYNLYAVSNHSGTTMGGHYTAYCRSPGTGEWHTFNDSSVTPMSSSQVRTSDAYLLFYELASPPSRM
- assay.protocol: qHTS Validation Assay for Inhibitors of Ubiquitin-specific Protease USP2a Using CHOP2 as the Reporter (AID 463106);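 note: plate controls were DMSO for no effect and full inhibition by NEM for full effect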
- test.context: USP2a cleavage of CHOP2 reporter, enzymatic; series mostly up to 38.3 µM
Results filed as inconclusive are left out. Calls of active or inactive are those of the source. Calls come from the whole dose curve; as a rule, active = well fitted inhibition curve with a large enough effect; inconclusive = small, poorly fitted or top-dose-only effect, or effect the other way; inactive = flat fitted curve, though single readings scatter.

{"molecule": "CN1CCC(=C2c3ccccc3CC(=O)c3sccc32)CC1", "outcome": "inactive"}
{"molecule": "CN(C)C(=O)C(CCN1CCC(O)(c2ccc(Cl)cc2)CC1)(c1ccccc1)c1ccccc1", "outcome": "inactive"}
{"molecule": "NCCS(=O)(=O)O", "outcome": "inactive"}
{"molecule": "O=C(c1ccc(F)cc1)C1CCN(CCn2c(=O)[nH]c3ccccc3c2=O)CC1", "outcome": "inactive"}

* * *

- assay.protocol: qHTS of pediatric cancer cell lines to identify multiple opportunities for drug repurposing: Confirmatory screen for Rh30 cells (AID 1347126); note: nearly all actives have a fitted effect of over 55% in size
- test.context: Rh30 rhabdomyosarcoma cell viability; series mostly up to 45.9 µM
Records with an inconclusive call do not appear. Active and inactive are the calls of the source. The call rests on the fitted dose curve; in most records, active means well fitted cell-killing curve with a large enough effect; inconclusive means small, poorly fitted or top-dose-only effect, or effect the other way; inactive means no such curve, though single readings can be large or run the other way.
Respond with a class label; see 1 (yes) = active, 0 (no) = inactive

Below are worked cases with known answers.
{"compound": "CN1CCN(CCCN2c3ccccc3Sc3ccc(Cl)cc32)CC1", "class": "1 (yes)"}
{"compound": "CC(C)Cc1ccc(C(C)C(=O)O)cc1 (stereo unspecified)", "class": "0 (no)"}
{"compound": "O=C(c1ccc(OCCN2CCCCC2)cc1)c1c(-c2ccc(O)cc2)sc2cc(O)ccc12", "class": "1 (yes)"}

[Q] Write down the call the test reported for this compound. Item: CS(=O)(=O)Nc1ccc([N+](=O)[O-])cc1Oc1ccccc1
[A] 0 (no)

[Q] Write down the call the test reported for this compound. Item: COC(=O)Nc1nc2ccc(C(=O)c3cccs3)cc2[nH]1
[A] 0 (no)

[Q] Write down the call the test reported for this compound. Item: O=C1c2c(O)ccc(O)c2C(=O)c2c(NCCNCCO)ccc(NCCNCCO)c21
[A] 1 (yes)

[Q] Write down the call the test reported for this compound. Item: CC(CCc1ccc(O)cc1)NCCc1ccc(O)c(O)c1 (stereo unspecified)
[A] 0 (no)

[Q] Write down the call the test reported for this compound. Item: CN(Cc1cnc2nc(N)nc(N)c2n1)c1ccc(C(=O)N[C@@H](CCC(=O)O)C(=O)O)cc1
[A] 0 (no)

* * *

- assay.protocol: qHTS Screen of the MIPE 4.0 Collection Against Ewings Sarcoma (TC71) (AID 1259253); note: nearly all actives have a fitted effect of over 40% in size
- test.context: TC71 Ewing sarcoma viability, CellTiter-Glo, 48 h; series mostly up to 45.8 µM
Inconclusive results are not listed. Calls of active or inactive are those of the source. Calls come from the whole dose curve; as a rule, active = well fitted inhibition curve with a large enough effect; inconclusive = small, poorly fitted or top-dose-only effect; inactive = no such curve, though single readings can be large or run the other way.
Respond with a class label; see active, inactive

{"molecule": "CC(C)NCC(O)c1ccc(O)c(O)c1 (configuration not stated)", "class": "active"}
{"molecule": "COc1ccc2[nH]cc(CCNC(C)=O)c2c1", "class": "active"}
{"molecule": "O=C(Nc1ccc([N+](=O)[O-])cc1Cl)c1cc(Cl)ccc1O", "class": "active"}

[Q] Write down the call the test reported for this molecule. Item: Clc1ccccc1C(c1ccccc1)(c1ccccc1)n1ccnc1
[A] active

[Q] Write down the call the test reported for this molecule. Item: CC(COc1ccccc1)N(CCCl)Cc1ccccc1 (configuration not stated)
[A] inactive

[Q] Write down the call the test reported for this molecule. Item: Nc1c2c(nc3ccccc13)CCCC2
[A] active

[Q] Write down the call the test reported for this molecule. Item: Cc1ccc(-c2cc(C(F)(F)F)nn2-c2ccc(S(N)(=O)=O)cc2)cc1
[A] active

[Q] Write down the call the test reported for this molecule. Item: OCCN(CCO)c1nc(N2CCCCC2)c2nc(N(CCO)CCO)nc(N3CCCCC3)c2n1
[A] active

[Q] Write down the call the test reported for this molecule. Item: CCOC(=O)C(C)(C)Oc1ccc(Cl)cc1
[A] inactive

[Q] Write down the call the test reported for this molecule. Item: Clc1ccc2nsnc2c1NC1=NCCN1
[A] inactive

[Q] Write down the call the test reported for this molecule. Item: O=C1Cc2cc(CCN3CCN(c4nsc5ccccc45)CC3)c(Cl)cc2N1
[A] active

[Q] Write down the call the test reported for this molecule. Item: Cc1cc(C(C)(C)C)cc(C)c1CC1=NCCN1
[A] inactive
